Target: Fuc(a1-2)Gal(b1-4)[Fuc(a1-3)]GlcNAc(b1-3)GalNAc
Test: glycan array binding signal (z-score within array); higher = stronger binding
Conditions: glycan notation: IUPAC condensed, linker removed
The sample as a whole holds a higher share of the strongest signals than the screen did.
measurement-label: glycan array binding signal (z-score)
# output: bare number, no unit

See these solved cases before continuing.
[[record]]
binder = "DCL-1 (Homo sapiens), Q8IX05 (protein) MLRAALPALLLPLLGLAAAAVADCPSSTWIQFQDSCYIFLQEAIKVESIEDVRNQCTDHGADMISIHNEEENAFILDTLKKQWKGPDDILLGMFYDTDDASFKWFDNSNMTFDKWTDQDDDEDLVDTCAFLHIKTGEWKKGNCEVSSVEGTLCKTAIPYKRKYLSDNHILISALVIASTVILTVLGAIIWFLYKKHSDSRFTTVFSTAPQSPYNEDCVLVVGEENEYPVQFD"
measurement_label = "glycan array binding signal (z-score)"
recorded_number = 1.87

[[record]]
binder = "PILRa (Homo sapiens), Q9UKJ1 (protein) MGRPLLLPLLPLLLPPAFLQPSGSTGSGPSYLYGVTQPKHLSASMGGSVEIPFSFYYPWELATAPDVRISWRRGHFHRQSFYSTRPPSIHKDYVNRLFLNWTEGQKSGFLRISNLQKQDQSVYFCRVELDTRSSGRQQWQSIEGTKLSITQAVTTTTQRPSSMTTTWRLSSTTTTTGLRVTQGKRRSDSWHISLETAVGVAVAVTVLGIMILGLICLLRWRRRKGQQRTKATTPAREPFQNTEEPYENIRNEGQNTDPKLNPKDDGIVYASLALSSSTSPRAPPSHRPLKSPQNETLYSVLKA"
measurement_label = "glycan array binding signal (z-score)"
recorded_number = 5.45


-- ask Name the recorded glycan array binding signal (z-score) for Gal 9 (Canis lupus) (protein) MAFSSSQPPYLSPGVPFSGKIQGGLQDGLKITINGTILYCNGTRFAVNFHSGHSDSDIAFHFNPRFEEGGYVVCNTKQKGSWGSEERKMQMPFQMGNPFELCFMVNSCDFKVTVNGSHFTQYSHRVPFHYVDTLSITGAVQLSYISFQSPGVWQSSSAPITQTVIHTVQTTPGQPFPNPIIPPTAYPTPTYPMPFFTSIPGGLYPSKSIIVSGTVLPGAKRFHINLRSGNDIAFHLNPRFNENTVVRNMQINNSWGSEERSLPRKMPFVQGQSFSVWIMCEGHCFKVAVDGEHLFEYYHRLKNLLAINNMEVAGDVQLTHVQT .
-- reply -0.26

-- ask glycan array binding signal (z-score) for Eosinophil cationic protein (ECP) (Homo sapiens), P12724 (protein) MVPKLFTSQICLLLLLGLMGVEGSLHARPPQFTRAQWFAIQHISLNPPRCTIAMRAINNYRWRCKNQNTFLRTTFANVVNVCGNQSIRCPHNRTLNNCHRSRFRVPLLHCDLINPGAQNISNCTYADRPGRRFYVVACDNRDPRDSPRYPVVPVHLDTTI ?
-- reply 2.14

-- ask Name the reported glycan array binding signal (z-score) value associated with the binder CC1G-11630 (Coprinopsis cinerea), A8P462 (protein) MTTEAKIKLKAVVYWELVFDYDNSSNTGEITQSYTVKISQTSTRSTFASEVSTTTIDTLTKNNQEVDVGASYGAISANVSASWEHSEEVNNMLEKTTQTSTEDTYTVETEETRSYTIGPGGMLSLFQKHFSGPGMHVAFDVFTTDLELAKERTEIDIDVDVEAIRFVREIRVVYTDIMSEAPGDHVREINGKNPDINYGFNGKFVWLVPEQTRKTAQALTNVEFVSQAESDDRYWDLAAGAGGSNRYLIPVYDTNNKDKIYELALWRSDSYITHDKVKAAGWSGTTGDINSGRGGTYLNLVWKTRHAY
-- reply 0.411

-- ask Item under review: ECA (Erythrina cristagalli), P83410 (protein) VETISFSFSEFEPGNDNLTLQGAALITQSGVLQLTKINQNGMPAWDSTGRTLYTKPVHMWDSTTGTVASFETRFSFSIEQPYTRPLPADGLVFFMGPTKSKPAQGYGYLGVFNNSKQDNSYQTLAVEFDTFSNPWDPPQVPHIGIDVNSIRSIKTQPFQLDNGQVANVVIKYDAPSKILHVVLVYPSSGAIYTIAEIVDVKQVLPDWVDVGLSGATGAQRDAAETHDVYSWSFQASLPE . Reported glycan array binding signal (z-score)?
-- reply 0.542

-- ask # get_value(readout='glycan array binding signal (z-score)', item= CFEM-SCL (Saccharomyces cerevisiae), O13547 (protein) MRATTLLSSVVSLALLSKEVLATPPACLLACVAQVGKSSSTCDSLNQVTCYCEHENSAVKKCLDSICPNNDADAAYSAFKSSCSEQNASLGD )
-- reply 3.09
